Where do the numbers come from? From patent US20050120493A1.

# experiment-notes: solubility in water of the dye salts before and after anion exchange
# Type: physicochemical
# test-settings: salt form of the cationic dye as given per example
Catalogue of water solubility values
Supply the numeric figure in %, leaving out any unit text.

Find the measured water solubility of COc1ccc(Nc2ccc(/N=N/c3n(C)cc[n+]3C)cc2)cc1.[Cl-] and report it.
0.35

The record that follows has no water solubility shown yet.
Find the measured water solubility of Cn1cc[n+](C)c1N=Nc1ccc(N)cc1.[Cl-] and report it.
3.7
